SYSTEM NAME: kappa opioid receptor (Homo sapiens)
TEST SUMMARY: GTPγS binding assay (G-protein activation)
Type: biochemical
SETTINGS: relative to U69,593 = 100% Emax
Sequence (P41145 whole entry, the tested form may be a part): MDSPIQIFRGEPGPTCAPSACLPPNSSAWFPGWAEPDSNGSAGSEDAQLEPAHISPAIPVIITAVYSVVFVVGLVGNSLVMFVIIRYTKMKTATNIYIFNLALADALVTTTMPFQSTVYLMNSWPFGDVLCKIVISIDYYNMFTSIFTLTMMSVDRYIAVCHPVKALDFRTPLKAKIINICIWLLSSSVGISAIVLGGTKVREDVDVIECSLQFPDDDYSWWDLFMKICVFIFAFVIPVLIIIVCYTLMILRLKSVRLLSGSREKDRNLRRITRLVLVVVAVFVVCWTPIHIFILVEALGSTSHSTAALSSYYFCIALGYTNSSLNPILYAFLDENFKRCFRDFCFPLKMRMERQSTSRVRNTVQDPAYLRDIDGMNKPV
READOUT NAME: GTPγS Emax (% U60)

INSERT INTO measurements (molecule, reported_measurement) VALUES
  ('Cc1ccc(/C=C/c2nnc(-c3ccccn3)n2Cc2nccs2)cc1C(F)(F)F [50 (UNC9078)]', 81.6),
  ('Clc1ccc(CCc2nnc(-c3ccccn3)n2Cc2ccco2)cc1', 84),
  ('Cn1ccnc1-c1nnc(CCc2ccc(Cl)cc2)n1Cc1nccs1', 94);

* * *

SYSTEM NAME: kappa opioid receptor (Homo sapiens, UniProt P41145)
TEST SUMMARY: PathHunter DiscoverX β-arrestin2 recruitment (enzyme fragment complementation) assay
Assay type: cell-based
SETTINGS: * compounds that did not reach plateau; 10 μM
Sequence (P41145 whole entry, the tested form may be a part): as above
Sequence (P32121 whole entry partner, the tested form may be a part): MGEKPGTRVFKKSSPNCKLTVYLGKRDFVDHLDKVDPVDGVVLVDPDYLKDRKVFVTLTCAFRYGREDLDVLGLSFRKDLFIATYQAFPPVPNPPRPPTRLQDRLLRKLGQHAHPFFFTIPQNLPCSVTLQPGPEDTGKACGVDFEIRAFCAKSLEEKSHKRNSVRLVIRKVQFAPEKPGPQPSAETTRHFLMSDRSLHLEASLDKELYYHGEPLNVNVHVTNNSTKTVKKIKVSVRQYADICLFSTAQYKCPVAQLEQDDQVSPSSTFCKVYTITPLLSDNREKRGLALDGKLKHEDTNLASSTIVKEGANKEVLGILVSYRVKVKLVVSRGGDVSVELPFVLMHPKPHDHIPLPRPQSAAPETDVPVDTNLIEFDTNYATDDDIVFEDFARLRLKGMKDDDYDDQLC
Measured β-arrestin2 maximum stimulation observed at 10 μM (starred Emax cells / % max at 10 uM) by item
READOUT NAME: β-arrestin2 maximum stimulation observed at 10 μM (starred Emax cells / % max at 10 uM)

INSERT INTO results (compound, reported_measurement) VALUES
  ('Cc1ccc(CCCN(CCCc2ccco2)C(=O)c2ccccn2)cc1C(F)(F)F [Compound 64]', '26* % U60'),
  ('Cc1ccc(CCN(CCc2ccco2)C(=O)c2ccccn2)cc1C(F)(F)F [Compound 61]', '41* % U60'),
  ('Cc1ccc(CCc2nnc(-c3cccc4ccccc34)n2Cc2cccs2)cc1C(F)(F)F [Compound 20]', '76* % U60'),
  ('Cc1ccc(/C=C/c2nnc(-c3nccn3C)n2Cc2cccs2)cc1C(F)(F)F [Compound 50]', '38* % U60');

* * *

SYSTEM NAME: kappa opioid receptor (Homo sapiens, UniProt P41145)
TEST SUMMARY: GTPγS binding assay (G-protein activation)
Assay type: biochemical
SETTINGS: relative to U69,593 = 100% Emax
Quick rule: GTPγS Emax (% U60) of at least 90 % U60 means criterion met, below that means criterion not met.

INSERT INTO results (compound, assigned_class) VALUES
  ('Brc1ccccc1CCc1nnc(-c2ccccn2)n1Cc1cccs1', 'criterion not met'),
  ('Clc1ccc(CCc2nnc(-c3ccccn3)n2Cc2cccs2)cc1', 'criterion met'),
  ('Cc1ccc(/C=C/c2nnc(-c3nccn3C)n2Cc2ccco2)cc1C(F)(F)F [Compound 49]', 'criterion not met'),
  ('Cc1ccc(/C=C/c2nnc(-c3ccccn3)n2Cc2nccs2)cc1C(F)(F)F [Compound 48]', 'criterion not met'),
  ('Cc1ccc(CCc2nnc(-c3nccn3C)n2Cc2cccs2)cc1C(F)(F)F', 'criterion met'),
  ('Cc1ccc(CCc2nnc(-c3ccccn3)n2Cc2ccccn2)cc1C(F)(F)F', 'criterion met'),
  ('Cc1ccc(/C=C/c2nnc(-c3nccn3C)n2Cc2cccs2)cc1C(F)(F)F [Compound 50]', 'criterion not met'),
  ('Cc1ccc(CCc2nnc(-c3cccnc3)n2Cc2cccs2)cc1C(F)(F)F', 'criterion not met'),
  ('Cc1ccc(/C=C/c2nnc(-c3ccccn3)n2Cc2cccs2)cc1C(F)(F)F [Compound 47]', 'criterion not met'),
  ('Cc1ccc(/C=C/c2nnc(-c3ccccn3)n2Cc2cccs2)cc1C(F)(F)F [49 (UNC9009)]', 'criterion not met'),
  ('Brc1ccc(CCc2nnc(-c3ccccn3)n2Cc2cccs2)cc1', 'criterion met');

* * *

SYSTEM NAME: kappa opioid receptor (Homo sapiens)
TEST SUMMARY: GTPγS binding assay (G-protein activation)
Format: biochemical
SETTINGS: * compounds that did not reach plateau; 10 μM
Each entry below carries its recorded GTPγS maximum stimulation observed at 10 μM (starred Emax cells).
READOUT NAME: GTPγS maximum stimulation observed at 10 μM (starred Emax cells)

INSERT INTO results (molecule, reported_measurement) VALUES
  ('O=C(Cc1ccccc1)c1nnc(-c2ccccn2)n1Cc1ccco1 [Compound 42]', '4* % U60'),
  ('Cc1ccc(CCc2nnc(-c3ccccn3)n2Cc2ccncc2)cc1C(F)(F)F [Compound 12]', '48* % U60'),
  ('OC(Cc1ccccc1)c1nnc(-c2ccccn2)n1Cc1ccco1 (stereo not shown) [Compound 41]', '22* % U60'),
  ('C(=C/c1nnc(-c2ccccn2)n1Cc1ccco1)/c1ccccc1 [Compound 38]', '3* % U60');

* * *

SYSTEM NAME: kappa opioid receptor (Homo sapiens, UniProt P41145)
TEST SUMMARY: PathHunter DiscoverX β-arrestin2 recruitment (enzyme fragment complementation) assay
Assay type: cell-based
SETTINGS: relative to U69,593 = 100% Emax; ~ did not plateau at 100%
READOUT NAME: β-arrestin2 Emax (% U60)

INSERT INTO assay_data (molecule, system_name, readout_name, reported_measurement) VALUES
  ('Cc1ccc(/C=C/c2nnc(-c3ccccn3)n2Cc2ccco2)cc1C(F)(F)F [42 (UNC9008)]', 'kappa opioid receptor (Homo sapiens, UniProt P41145)', 'β-arrestin2 Emax (% U60)', 119),
  ('Cc1ccc(CN(Cc2ccco2)C(=O)c2ccccn2)cc1C(F)(F)F', 'kappa opioid receptor (Homo sapiens, UniProt P41145)', 'β-arrestin2 Emax (% U60)', 87),
  ('Cc1ccc(CCc2nnc(-c3ccccn3)n2Cc2ccco2)cc1C(F)(F)F', 'kappa opioid receptor (Homo sapiens, UniProt P41145)', 'β-arrestin2 Emax (% U60)', 119),
  ('Clc1ccc(CCc2nnc(-c3ccccn3)n2Cc2cccs2)cc1', 'kappa opioid receptor (Homo sapiens, UniProt P41145)', 'β-arrestin2 Emax (% U60)', 102),
  ('O=C(Cc1ccccc1)c1nnc(-c2ccccn2)n1Cc1ccco1', 'kappa opioid receptor (Homo sapiens, UniProt P41145)', 'β-arrestin2 Emax (% U60)', 2),
  ('Clc1ccc(CCc2nnc(-c3ccccn3)n2Cc2cccs2)c(Cl)c1', 'kappa opioid receptor (Homo sapiens, UniProt P41145)', 'β-arrestin2 Emax (% U60)', 154),
  ('Brc1ccc(CCc2nnc(-c3ccccn3)n2Cc2cccs2)cc1', 'kappa opioid receptor (Homo sapiens, UniProt P41145)', 'β-arrestin2 Emax (% U60)', 106),
  ('Cc1ccc(CCc2nnc(-c3ccccn3)n2Cc2nccs2)cc1C(F)(F)F', 'kappa opioid receptor (Homo sapiens, UniProt P41145)', 'β-arrestin2 Emax (% U60)', 82),
  ('Cn1ccnc1-c1nnc(CCc2ccc(Cl)cc2)n1Cc1nccs1', 'kappa opioid receptor (Homo sapiens, UniProt P41145)', 'β-arrestin2 Emax (% U60)', 81);

* * *

SYSTEM NAME: kappa opioid receptor (Homo sapiens, UniProt P41145)
TEST SUMMARY: GTPγS binding assay (G-protein activation)
Type: biochemical
SETTINGS: 3 parameter nonlinear regression; nc = did not converge
pEC50: −log10 of the molar value.
pEC50 reference
READOUT NAME: pEC50

INSERT INTO results (compound, system_name, reported_measurement) VALUES
  ('Cc1cc(CCc2nnc(-c3ccccn3)n2Cc2cccs2)ccc1C(F)(F)F [Compound 39a]', 'kappa opioid receptor (Homo sapiens, UniProt P41145)', 8.51),
  ('Cc1ccc(CN(Cc2ccco2)C(=O)c2ccccn2)cc1C(F)(F)F', 'kappa opioid receptor (Homo sapiens, UniProt P41145)', 6.43),
  ('FC(Cc1nnc(-c2ccccn2)n1Cc1cccs1)c1ccccc1 (stereo not drawn)', 'kappa opioid receptor (Homo sapiens, UniProt P41145)', 5.97),
  ('Clc1ccc(CCc2nnc(-c3ccccn3)n2Cc2ccco2)cc1', 'kappa opioid receptor (Homo sapiens, UniProt P41145)', 7.00),
  ('Cc1ccc(/C=C/c2nnc(-c3nccn3C)n2Cc2nccs2)cc1C(F)(F)F [Compound 51]', 'kappa opioid receptor (Homo sapiens, UniProt P41145)', 6.51),
  ('Cc1ccc(/C=C/c2nnc(-c3ccccn3)n2Cc2nccs2)cc1C(F)(F)F [Compound 48]', 'kappa opioid receptor (Homo sapiens, UniProt P41145)', 6.12),
  ('Cc1ccc(/C=C/c2nnc(-c3nccn3C)n2Cc2cccs2)cc1C(F)(F)F [52 (UNC9166)]', 'kappa opioid receptor (Homo sapiens, UniProt P41145)', 6.46),
  ('Fc1ccc(CCc2nnc(-c3ccccn3)n2Cc2cccs2)cc1', 'kappa opioid receptor (Homo sapiens, UniProt P41145)', 6.54),
  ('Cc1ccc(CCc2nnc(-c3ccccn3)n2Cc2ncco2)cc1C(F)(F)F', 'kappa opioid receptor (Homo sapiens, UniProt P41145)', 7.42),
  ('Clc1ccc(CCc2nnc(-c3ccccn3)n2Cc2cccs2)cc1', 'kappa opioid receptor (Homo sapiens, UniProt P41145)', 7.46),
  ('FC(F)(F)c1ccc(CCc2nnc(-c3ccccn3)n2Cc2cccs2)cc1Cl', 'kappa opioid receptor (Homo sapiens, UniProt P41145)', 8.85),
  ('Cc1ccc(CCc2nnc(-c3ccccn3)n2Cc2ccsc2)cc1C(F)(F)F', 'kappa opioid receptor (Homo sapiens, UniProt P41145)', 7.92),
  ('Cc1ccc(/C=C/c2nnc(-c3nccn3C)n2Cc2cccs2)cc1C(F)(F)F [Compound 50]', 'kappa opioid receptor (Homo sapiens, UniProt P41145)', 6.00),
  ('Cc1ccc(CCc2nnc(-c3nccn3C)n2Cc2ccco2)cc1C(F)(F)F', 'kappa opioid receptor (Homo sapiens, UniProt P41145)', 7.16),
  ('C(=C/c1nnc(-c2ccccn2)n1Cc1ccco1)/c1ccccc1', 'kappa opioid receptor (Homo sapiens, UniProt P41145)', 5.75),
  ('Cc1ccc(CCc2nnc(-c3ccccn3)n2Cc2cccnc2)cc1C(F)(F)F', 'kappa opioid receptor (Homo sapiens, UniProt P41145)', 7.15),
  ('Cc1ccc(CCc2nnc(-c3ccccn3)n2-c2ccc3ccccc3c2)cc1C(F)(F)F [Compound 12a]', 'kappa opioid receptor (Homo sapiens, UniProt P41145)', 4.99),
  ('Cc1ccc(CCc2nnc(-c3ccccn3)n2-c2cccc3ccccc23)cc1C(F)(F)F [Compound 11a]', 'kappa opioid receptor (Homo sapiens, UniProt P41145)', 5.58);
